Just for reference, ChEMBL document CHEMBL1135325 is where these values come from.

target: Acetylcholinesterase (Homo sapiens)
Sequence (P22303 whole entry): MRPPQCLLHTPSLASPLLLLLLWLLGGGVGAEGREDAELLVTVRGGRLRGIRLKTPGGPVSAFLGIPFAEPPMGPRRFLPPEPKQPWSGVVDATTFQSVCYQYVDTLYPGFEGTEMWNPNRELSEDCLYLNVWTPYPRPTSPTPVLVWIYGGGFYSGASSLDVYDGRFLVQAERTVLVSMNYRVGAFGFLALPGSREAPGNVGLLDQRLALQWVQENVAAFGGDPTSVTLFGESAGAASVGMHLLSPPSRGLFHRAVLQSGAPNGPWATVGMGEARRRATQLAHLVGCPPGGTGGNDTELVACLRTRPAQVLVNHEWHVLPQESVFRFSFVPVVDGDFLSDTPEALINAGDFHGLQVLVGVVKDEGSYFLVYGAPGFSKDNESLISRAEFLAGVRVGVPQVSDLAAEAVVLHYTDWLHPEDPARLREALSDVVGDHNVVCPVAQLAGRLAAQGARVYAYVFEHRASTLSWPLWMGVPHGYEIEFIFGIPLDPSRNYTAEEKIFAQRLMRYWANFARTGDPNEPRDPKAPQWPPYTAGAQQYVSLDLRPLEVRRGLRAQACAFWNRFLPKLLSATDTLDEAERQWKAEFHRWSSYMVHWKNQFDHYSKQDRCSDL
pIC50: −log10 of the molar value.
Reported pIC50 values are given for each entry in this list.
readout-type: pIC50

- C=CC[n+]1ccc(CCC(=O)c2cc3cc(OC)c(OC)cc3s2)cc1.[Br-]: 6.27
- COc1cc2cc(C(=O)CCc3cc[n+](CC4CC4)cc3)sc2cc1OC.[Br-]: 6.96
- COc1cc2cc(C(=O)CCC3CC[N+](C)(CC(=O)OC(C)(C)C)CC3)sc2cc1OC.[Br-] (centres undefined): 7.10
- CC[n+]1ccc(CCC(=O)c2cc3cc(OC)c(OC)cc3s2)cc1.[Br-]: 6.55
- COCC[n+]1ccc(CCC(=O)c2cc3cc(OC)c(OC)cc3s2)cc1: 7.52
- COc1cc2cc(C(=O)CC(O)C3CC[N+](C)(Cc4ccccc4)CC3)sc2cc1OC (stereo in doubt; 9): 6.72
- COc1cc2cc(C(=O)CCc3cc[n+](Cc4ccsc4)cc3)sc2cc1OC: 8.22
- CCOCC[n+]1ccc(CCC(=O)c2cc3cc(OC)c(OC)cc3s2)cc1: 8.15
- COc1cc2cc(C(=O)CC(O)C3CC[N+](C)(Cc4ccccc4)CC3)sc2cc1OC.[Br-] (single isomer, unassigned; (-)): 6.18
- COc1cc2cc(C(=O)CC(O)C3CC[N+](C)(Cc4ccccc4)CC3)sc2cc1OC.[Br-] (stereo in doubt; 6): 7.37
- COc1cc2cc(C(=O)CCc3cc[n+](C)cc3)sc2cc1OC.[Br-]: 6.05
- COc1cc2cc(C(=O)CC3=CC[N+](C)(Cc4ccccc4)CC3)sc2cc1OC.[Br-] (centres undefined): 6.12
- COc1cc2cc(C(O)C3CC[N+](C)(Cc4ccccc4)CC3)sc2cc1OC.[Br-] (centres undefined): 4.71
- COc1cc2cc(C(=O)CCC3CC[N+](C)(CC4CCCCO4)CC3)sc2cc1OC.[Br-] (centres undefined): 7.55
- COc1cc2cc(C(=O)CCc3cc[n+](Cc4ccc(F)cc4)cc3)sc2cc1OC: 8.59
- COc1cc2cc(C(=O)CC(O)C3CC[N+](C)(Cc4ccccc4)CC3)sc2cc1OC.[Br-] (single isomer, unassigned; (+)): 6.66
- COc1cc2cc(C(=O)CCCCC3CC[N+](C)(Cc4ccccc4)CC3)sc2cc1OC.[Br-] (centres undefined): 6.96
- COc1cc2cc(C(=O)CCC3CC[N+](C)(CCOc4ccccc4)CC3)sc2cc1OC.[Br-] (centres undefined): 6.41
- COCC[N+]1(C)CCC(CCC(=O)c2cc3cc(OC)c(OC)cc3s2)CC1.[Br-] (centres undefined): 7.28
- COc1cc2cc(CC3CC[N+](C)(Cc4ccccc4)CC3)sc2cc1OC.[Br-] (centres undefined): 5.00
- COc1cc2cc(C=C3CC[N+](C)(Cc4ccccc4)CC3)sc2cc1OC.[Br-] (centres undefined): 5.57
- COc1cc2cc(C(=O)CCc3cc[n+](CC4CCC4)cc3)sc2cc1OC.[Br-]: 7.40
- COc1cc2cc(C(=O)C=C3CC[N+](C)(Cc4ccccc4)CC3)sc2cc1OC.[Br-] (centres undefined): 6.28
- COc1cc2cc(C(=O)CC(OC)C3CC[N+](C)(Cc4ccccc4)CC3)sc2cc1OC.[Br-] (centres undefined): 6.92
- COc1cc2cc(C(=O)CCC3CC[N+](C)(Cc4ccc([N+](=O)[O-])o4)CC3)sc2cc1OC.[Br-] (centres undefined): 7.49
- COC(=O)C[N+]1(C)CCC(CCC(=O)c2cc3cc(OC)c(OC)cc3s2)CC1.[Br-] (centres undefined): 7.27
- COc1cc2cc(C(=O)CC(O)CCC3CC[N+](C)(Cc4ccccc4)CC3)sc2cc1OC.[Br-] (centres undefined): 6.42
- COc1cc2cc(C(=O)CCc3cc[n+](Cc4ccc([N+](=O)[O-])o4)cc3)sc2cc1OC.[Br-]: 8.35
